Origin of values: ChEMBL document CHEMBL3627713

- Tested on: THP-1
- measurementNotes: Cytotoxicity against human THP1 cells assessed as growth inhibition after 48 hrs by sulforhodamine B assay
- Type: functional, cell-based
- conditionLabel: THP-1, 48 h
Doc: threshold 7 µM (exclusive). Items with IC50 beneath it return true; others return false.

>>> classassignment("COc1ccc(/C=C/C(=O)/C=C/c2ccc(OCc3cn(CCN4C(=O)C(=O)c5cc(Cl)ccc54)nn3)c(OC)c2)cc1OC")
"false"
>>> classassignment("COc1ccc(/C=C/C(=O)/C=C/c2ccc(OCc3cn(CCN4C(=O)C(=O)c5ccccc54)nn3)c(OC)c2)cc1OC")
"true"
>>> classassignment("COc1cc(/C=C/C(=O)/C=C/c2cccc3ccccc23)ccc1OCc1cn(CCN2C(=O)C(=O)c3cc(Cl)ccc32)nn1")
"false"
>>> classassignment("COc1ccc(/C=C/C(=O)/C=C/c2ccc(OCc3cn(CCN4C(=O)C(=O)c5ccccc54)nn3)c(OC)c2)cc1")
"true"
>>> classassignment("COc1cc(/C=C/C(=O)/C=C/c2cc(OC)c(OC)c(OC)c2)ccc1OCc1cn(CCN2C(=O)C(=O)c3ccccc32)nn1")
"true"
>>> classassignment("COc1ccccc1/C=C/C(=O)/C=C/c1ccc(OCc2cn(CCN3C(=O)C(=O)c4ccccc43)nn2)c(OC)c1")
"true"
>>> classassignment("COc1cccc(/C=C/C(=O)/C=C/c2ccc(OCc3cn(CCN4C(=O)C(=O)c5ccccc54)nn3)c(OC)c2)c1")
"true"
>>> classassignment("COc1cc(/C=C/C(=O)/C=C/c2ccccc2)ccc1OCc1cn(CCN2C(=O)C(=O)c3ccccc32)nn1")
"false"
>>> classassignment("COc1cc(/C=C/C(=O)/C=C/c2cc(OC)c(OC)c(OC)c2)ccc1OCc1cn(CCN2C(=O)C(=O)c3cc(Cl)ccc32)nn1")
"true"
>>> classassignment("COc1cc(/C=C/C(=O)/C=C/c2ccco2)ccc1OCc1cn(CCN2C(=O)C(=O)c3ccccc32)nn1")
"true"
>>> classassignment("COc1cc(/C=C/C(=O)/C=C/c2cc(OC)c(OC)c(OC)c2)ccc1OCc1cn(CCN2C(=O)C(=O)c3cc(Br)ccc32)nn1")
"true"
>>> classassignment("COc1cc(/C=C/C(=O)/C=C/c2cccc3ccccc23)ccc1OCc1cn(CCN2C(=O)C(=O)c3ccccc32)nn1")
"true"
>>> classassignment("COc1ccc(/C=C/C(=O)/C=C/c2ccc(OCc3cn(CCN4C(=O)C(=O)c5cc(Cl)ccc54)nn3)c(OC)c2)cc1")
"false"

----------
Listed compounds paired with reported inhibition of growth at 50 µM
- measurementNotes: Cytotoxicity against human MIAPaCa2 cells assessed as growth inhibition at 50 uM after 48 hrs by sulforhodamine B assay relative to control
- Type: functional
- conditionLabel: MIA PaCa-2, 48 h, read-out: GI
readoutKind: inhibition of growth at 50 µM (%)

>>> readoutnumber("COc1cccc(/C=C/C(=O)/C=C/c2ccc(OCc3cn(CCN4C(=O)C(=O)c5ccccc54)nn3)c(OC)c2)c1")
15
>>> readoutnumber("COc1ccc(/C=C/C(=O)/C=C/c2ccc(OCc3cn(CCN4C(=O)C(=O)c5cc(Br)ccc54)nn3)c(OC)c2)cc1")
10
>>> readoutnumber("COc1ccc(/C=C/C(=O)/C=C/c2ccc(OCc3cn(CCN4C(=O)C(=O)c5ccccc54)nn3)c(OC)c2)cc1")
17
>>> readoutnumber("COc1cc(/C=C/C(=O)/C=C/c2ccccc2)ccc1OCc1cn(CCN2C(=O)C(=O)c3cc(Cl)ccc32)nn1")
13
>>> readoutnumber("COc1ccc(/C=C/C(=O)/C=C/c2ccc(OCc3cn(CCN4C(=O)C(=O)c5cc(Cl)ccc54)nn3)c(OC)c2)cc1")
10
>>> readoutnumber("COc1ccc(/C=C/C(=O)/C=C/c2ccc(OCc3cn(CCN4C(=O)C(=O)c5cc(Br)ccc54)nn3)c(OC)c2)cc1OC")
12
>>> readoutnumber("COc1cc(/C=C/C(=O)/C=C/c2cc(OC)c(OC)c(OC)c2)ccc1OCc1cn(CCN2C(=O)C(=O)c3cc(Br)ccc32)nn1")
15
>>> readoutnumber("COc1cc(/C=C/C(=O)/C=C/c2cc(OC)c(OC)c(OC)c2)ccc1OCc1cn(CCN2C(=O)C(=O)c3ccccc32)nn1")
25
>>> readoutnumber("COc1cc(/C=C/C(=O)/C=C/c2cc(OC)c(OC)c(OC)c2)ccc1OCc1cn(CCN2C(=O)C(=O)c3cc(Cl)ccc32)nn1")
13
>>> readoutnumber("COc1ccc(/C=C/C(=O)/C=C/c2ccc(OCc3cn(CCN4C(=O)C(=O)c5ccccc54)nn3)c(OC)c2)cc1OC")
21
>>> readoutnumber("COc1cc(/C=C/C(=O)/C=C/c2ccccc2)ccc1OCc1cn(CCN2C(=O)C(=O)c3cc(Br)ccc32)nn1")
16
>>> readoutnumber("COc1ccccc1/C=C/C(=O)/C=C/c1ccc(OCc2cn(CCN3C(=O)C(=O)c4ccccc43)nn2)c(OC)c1")
13
>>> readoutnumber("COc1cc(/C=C/C(=O)/C=C/c2cccc3ccccc23)ccc1OCc1cn(CCN2C(=O)C(=O)c3ccccc32)nn1")
11
>>> readoutnumber("COc1cc(/C=C/C(=O)/C=C/c2ccccc2)ccc1OCc1cn(CCN2C(=O)C(=O)c3ccccc32)nn1")
20
>>> readoutnumber("COc1cc(/C=C/C(=O)/C=C/c2ccco2)ccc1OCc1cn(CCN2C(=O)C(=O)c3ccccc32)nn1")
10
>>> readoutnumber("COc1ccc(/C=C/C(=O)/C=C/c2ccc(OCc3cn(CCN4C(=O)C(=O)c5cc(Cl)ccc54)nn3)c(OC)c2)cc1OC")
12
